Ref: patent US11014905B2

- assay-text: Test 3-1: metabolic stability test of human liver microsome
- Format: in vitro ADME
- assay-context: human liver microsome 0.1 mg/mL, test compound 0.1 μmol/L, 37° C., 30 minutes
measured-property: Metabolic stability of human liver microsome

Recorded Metabolic stability of human liver microsome, per entry:
[[record]]
molecule = "O=C(NCCN1CCC(c2cccc(C(F)(F)F)n2)CC1)C1CCOC1 (stereo not drawn)"
result = "<0.05 mL/min/mg protein"

[[record]]
molecule = "Cc1cccc(C2CCN(CCNC(=O)C(C)(C)C)CC2)n1"
result = "0.015 mL/min/mg protein"

[[record]]
molecule = "Cc1cccc(C2CCN(CCNC(=O)C3CCC(F)(F)CC3)CC2)n1"
result = "<0.01 mL/min/mg protein"

[[record]]
molecule = "COc1cccc(C2CCN(CCNC(=O)C3CCOCC3)CC2)n1"
result = "<0.05 mL/min/mg protein"

[[record]]
molecule = "COCC(C)(C)C(=O)NCCN1CC=C(c2cccc(C(F)(F)F)n2)CC1"
result = "<0.05 mL/min/mg protein"


Asked: # Metabolic stability of human liver microsome lookup, item O=C(NCCN1CC=C(c2cccc(C(F)(F)F)n2)CC1)C1CCCOC1 (stereo not drawn)
Given back: <0.05 mL/min/mg protein

Asked: What does the record list as Metabolic stability of human liver microsome for COCC(C)(C)C(=O)NCCN1CCC(c2cccc(C(F)(F)F)n2)CC1 ?
Given back: <0.01 mL/min/mg protein

Asked: Which measured Metabolic stability of human liver microsome value corresponds to Cc1cccc(C2=CCN(CCNC(=O)C3CCC(F)(F)CC3)CC2)n1 ?
Given back: 0.084 mL/min/mg protein

Asked: Request the reported Metabolic stability of human liver microsome associated with Cc1cccc(C2CCN(CCNC(=O)C3CC4CCC3O4)CC2)n1 (stereo not drawn)
Given back: <0.01 mL/min/mg protein

---

- tgt: UniProt:P21917
- Sequence (P21917 whole entry): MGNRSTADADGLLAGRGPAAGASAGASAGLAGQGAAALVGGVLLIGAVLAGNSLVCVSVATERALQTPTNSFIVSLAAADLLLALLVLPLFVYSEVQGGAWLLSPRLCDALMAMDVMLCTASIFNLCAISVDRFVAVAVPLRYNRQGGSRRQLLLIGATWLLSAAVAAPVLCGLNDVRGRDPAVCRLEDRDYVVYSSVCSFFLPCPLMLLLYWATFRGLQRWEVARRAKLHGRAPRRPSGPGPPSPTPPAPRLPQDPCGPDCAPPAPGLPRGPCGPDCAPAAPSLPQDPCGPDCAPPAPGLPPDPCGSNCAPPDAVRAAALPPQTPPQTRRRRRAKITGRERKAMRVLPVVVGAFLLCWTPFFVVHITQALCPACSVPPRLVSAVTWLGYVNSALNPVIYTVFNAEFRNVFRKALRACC
measured-property: Ki (nM)
Kindly provide the numeric value in nM only, without the unit symbol.

Asked: Request: Ki, test system UniProt:P21917, entry Cc1cccc(C2CCN(CCNC(=O)C3CCCCO3)CC2)n1 (stereo not shown)
Given back: 92

---

Catalogue of compounds with associated EC50
- tgt: human 5-HT1A receptor (Homo sapiens (Human), UniProt P08908)
- Sequence (P08908 whole entry): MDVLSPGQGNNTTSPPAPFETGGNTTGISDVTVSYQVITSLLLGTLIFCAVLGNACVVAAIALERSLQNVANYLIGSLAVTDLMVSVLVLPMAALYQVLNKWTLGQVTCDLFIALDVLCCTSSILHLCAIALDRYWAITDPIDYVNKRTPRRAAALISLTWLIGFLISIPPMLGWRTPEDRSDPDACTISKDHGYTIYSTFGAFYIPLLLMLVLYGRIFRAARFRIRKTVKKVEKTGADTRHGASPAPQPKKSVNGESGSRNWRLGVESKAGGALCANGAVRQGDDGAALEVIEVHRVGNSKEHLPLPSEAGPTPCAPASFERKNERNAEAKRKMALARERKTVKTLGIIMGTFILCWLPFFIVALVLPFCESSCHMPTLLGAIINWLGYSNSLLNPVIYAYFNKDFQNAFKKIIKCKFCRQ
- assay-text: Test 1: agonistic activity for human 5-HT1A receptor (aequorin luminescence, CHO-K1)
- assay-context: CHO-K1 cell transiently expressing aequorin, Ga16 and receptor

[[record]]
compound = "Cc1cccc(C2CCN(CCNC(=O)C3CCCCO3)CC2)n1 (centres unmarked)"
result = "57 nM"


Next, consider the following compound.
Asked: # returns recorded EC50 (system: human 5-HT1A receptor (Homo sapiens (Human), UniProt P08908)) for O=C(NCCN1CCC(c2cccc(C(F)(F)F)n2)CC1)C1CCOC1 (centres unmarked)
Given back: 67 nM

---

- assay-text: Test 3-1: metabolic stability test of human liver microsome
- Type: in vitro ADME
- assay-context: human liver microsome 0.1 mg/mL, test compound 0.1 μmol/L, 37° C., 30 minutes
Collected Metabolic stability of human liver microsome values appear next to each entry.
State just the number; it will be interpreted in mL/min/mg protein.

[[record]]
line_notation = "CC(C)(C)C(=O)NCCN1CCC(c2cccc(C(F)(F)F)n2)CC1"
scale_unit = "mL/min/mg protein"
number = 0.025


Asked: For the compound shown here, Cc1cccc(C2CCN(CCNC(=O)C3CCOCC3)CC2)n1 , give the reported Metabolic stability of human liver microsome.
Given back: 0.017
